Target: T1, Human CD3eg linker (human)
T1 construct: Single-chain soluble construct; also called recombinant human CD3
T1 chain: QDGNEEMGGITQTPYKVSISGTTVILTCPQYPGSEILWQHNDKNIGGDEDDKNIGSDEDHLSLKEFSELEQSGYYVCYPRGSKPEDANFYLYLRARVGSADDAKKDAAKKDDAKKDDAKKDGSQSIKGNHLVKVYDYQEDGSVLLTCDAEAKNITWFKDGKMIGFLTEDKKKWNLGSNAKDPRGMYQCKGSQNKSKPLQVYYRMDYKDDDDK
Experiment: SPR Biacore 8K, Ab captured on anti-human Fc, CD3 as analyte, 25 C
value-type: Kd

[[record]]
binder = "H0888L0581 (antibody, V domains shown, Dual-Ig with an Fc; also called DualAE02; dBBDu183H0888/dBBDu072L0581) VH: QVQLVESGGGLVQPGRSLRLSCAASGFKFSNVWMHWVRQAPGKGLEWVAQIKDKWNAYAAYYAPSVKGRFTISRDDSKNSIYLQMNSLKTEDTAVYYCHYIHYASASTLLPAFGIDAWGQGTTVTVSS VL: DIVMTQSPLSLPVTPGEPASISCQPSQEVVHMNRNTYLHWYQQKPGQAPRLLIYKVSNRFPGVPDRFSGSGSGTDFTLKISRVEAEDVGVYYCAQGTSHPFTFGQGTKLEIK"
value_reported = "20.2 nM"

